- Test system: HCT-116 colon cancer
- assay protocol: Cancer cell proliferation, HCT-116
- Type: cell-based
- measurement parameters: Homo sapiens, HCT-116, 72 h, HCT-116, Exp 1, 72 hours; read-out: IC50
measured property: IC50 (µM)

>>> observed("COc1cc2c(cc1OC)C(c1sc3ccccc3c1Cl)=NCC2")
14.7

----------
The entries below are paired with their reported Verification Ratio.
- measured on: UniProt Q923J1
- Sequence (Q923J1 whole entry): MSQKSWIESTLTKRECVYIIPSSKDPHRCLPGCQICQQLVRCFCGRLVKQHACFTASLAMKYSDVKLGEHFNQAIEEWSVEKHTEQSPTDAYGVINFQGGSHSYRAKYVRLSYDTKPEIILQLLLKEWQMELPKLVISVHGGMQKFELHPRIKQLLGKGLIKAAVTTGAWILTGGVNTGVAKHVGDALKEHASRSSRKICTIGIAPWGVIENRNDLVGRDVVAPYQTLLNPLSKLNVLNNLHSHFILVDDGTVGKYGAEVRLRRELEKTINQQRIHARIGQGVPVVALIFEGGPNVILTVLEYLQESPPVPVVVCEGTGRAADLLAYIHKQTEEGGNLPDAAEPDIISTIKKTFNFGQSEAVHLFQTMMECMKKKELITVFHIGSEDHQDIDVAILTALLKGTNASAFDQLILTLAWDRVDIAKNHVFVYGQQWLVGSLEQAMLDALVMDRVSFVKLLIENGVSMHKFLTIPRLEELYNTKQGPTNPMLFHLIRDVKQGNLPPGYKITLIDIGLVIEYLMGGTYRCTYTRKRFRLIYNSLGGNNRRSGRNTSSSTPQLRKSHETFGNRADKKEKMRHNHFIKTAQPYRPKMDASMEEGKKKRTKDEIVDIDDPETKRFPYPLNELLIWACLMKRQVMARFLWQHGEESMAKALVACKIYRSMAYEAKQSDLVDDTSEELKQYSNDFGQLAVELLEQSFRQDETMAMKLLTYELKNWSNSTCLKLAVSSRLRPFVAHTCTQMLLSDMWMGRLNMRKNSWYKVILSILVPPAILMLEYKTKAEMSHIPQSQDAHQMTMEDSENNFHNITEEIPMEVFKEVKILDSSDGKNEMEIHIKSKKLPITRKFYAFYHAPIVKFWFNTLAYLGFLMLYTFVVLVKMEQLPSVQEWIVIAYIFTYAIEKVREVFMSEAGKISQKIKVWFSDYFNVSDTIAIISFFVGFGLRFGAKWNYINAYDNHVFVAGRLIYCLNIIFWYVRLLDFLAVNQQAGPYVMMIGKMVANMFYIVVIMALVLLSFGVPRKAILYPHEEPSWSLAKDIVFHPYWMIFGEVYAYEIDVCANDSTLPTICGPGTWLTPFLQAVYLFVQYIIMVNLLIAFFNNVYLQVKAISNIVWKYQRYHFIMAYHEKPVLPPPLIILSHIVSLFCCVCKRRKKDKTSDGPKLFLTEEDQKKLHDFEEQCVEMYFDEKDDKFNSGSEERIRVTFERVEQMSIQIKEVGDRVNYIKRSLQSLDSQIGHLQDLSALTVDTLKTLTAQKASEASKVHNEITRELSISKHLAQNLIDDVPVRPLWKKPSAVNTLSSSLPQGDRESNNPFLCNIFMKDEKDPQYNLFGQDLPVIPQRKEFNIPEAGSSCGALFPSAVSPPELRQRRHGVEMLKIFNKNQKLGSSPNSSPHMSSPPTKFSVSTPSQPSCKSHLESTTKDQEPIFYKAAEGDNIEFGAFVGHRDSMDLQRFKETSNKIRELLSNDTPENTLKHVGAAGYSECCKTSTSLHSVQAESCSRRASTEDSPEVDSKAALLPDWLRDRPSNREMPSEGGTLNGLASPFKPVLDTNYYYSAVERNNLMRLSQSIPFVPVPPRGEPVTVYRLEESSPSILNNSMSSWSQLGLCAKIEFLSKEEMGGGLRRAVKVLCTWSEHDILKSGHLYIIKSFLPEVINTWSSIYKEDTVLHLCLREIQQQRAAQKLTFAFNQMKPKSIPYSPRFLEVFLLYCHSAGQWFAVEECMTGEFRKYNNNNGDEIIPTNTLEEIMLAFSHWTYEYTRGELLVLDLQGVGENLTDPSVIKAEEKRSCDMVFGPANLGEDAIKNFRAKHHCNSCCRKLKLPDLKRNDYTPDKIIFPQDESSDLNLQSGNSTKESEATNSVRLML
- assay protocol: TRPM7-mediated cell death screen, Tet-induced Flag-murine TRPM7 HEK293 Trex cells in Mg2+-deficient HBSS, PI fluorescence
- measurement parameters: Prestwick library, manual replication
Where a name gives a salt, the structure may show the parent alone.
measured property: Verification Ratio

>>> observed("CC[C@H]1CN2CCc3cc(OC)c(OC)cc3[C@@H]2C[C@@H]1C[C@H]1NCCc2cc(O)c(OC)cc21.Cl.Cl.O.O.O.O.O.O.O [Cephaeline dihydrochloride heptahydrate]")
0.2271
>>> observed("COc1ccc(C[C@H](N)C(=O)N[C@H]2[C@@H](O)[C@H](n3cnc4c(N(C)C)ncnc43)O[C@@H]2CO)cc1 [Puromycin dihydrochloride]")
0.5905
>>> observed("CCOc1ccc(Cc2nccc3cc(OCC)c(OCC)cc23)cc1OCC [Ethaverine hydrochloride]")
0.08142
>>> observed("COc1ccccc1N1CCN(CC(O)COc2cccc3ccccc23)CC1 (centres unmarked) [Naftopidil dihydrochloride]")
0.1346
>>> observed("COc1cccc2c1C(=O)c1c(O)c3c(c(O)c1C2=O)C[C@@](O)(C(C)=O)C[C@@H]3O[C@H]1C[C@H](N)[C@H](O)[C@H](C)O1 [Daunorubicin hydrochloride]")
0.4598
